molecular target: MT2 receptor (Homo sapiens, UniProt P49286); assay: FLIPR Ca2+ mobilization assay, MT2; assay type: cell-based; set-up: expressed in transfected cells; host or cells: COS-7 (monkey kidney fibroblast); details: Table 1; MT2 in COS-7 cells with chimeric G protein; log value, negative; NSR = no significant response; read-out: Log(EC50) ± SEM (converted)
Sequence (P49286 whole entry): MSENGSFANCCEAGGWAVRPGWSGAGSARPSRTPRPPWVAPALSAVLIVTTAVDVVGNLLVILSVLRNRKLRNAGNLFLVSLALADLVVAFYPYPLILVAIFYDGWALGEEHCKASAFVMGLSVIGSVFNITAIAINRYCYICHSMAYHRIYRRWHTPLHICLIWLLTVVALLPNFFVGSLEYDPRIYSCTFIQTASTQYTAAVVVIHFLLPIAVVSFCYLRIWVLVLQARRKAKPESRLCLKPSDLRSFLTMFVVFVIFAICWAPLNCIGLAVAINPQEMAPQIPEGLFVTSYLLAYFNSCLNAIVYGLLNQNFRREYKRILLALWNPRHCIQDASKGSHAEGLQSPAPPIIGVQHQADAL
// returns criterion not met unless EC50 is strictly below 0.5 µM, in which case criterion met

Solved entries (count: 5):
{"Molecule": "COc1cc2c(=O)n(C)ccc2cc1OCCCc1ccccc1 [IS017]", "Assigned label": "criterion met"}
{"Molecule": "COc1cc2c(=O)n(C)ccc2cc1OCc1ccccc1 [IS016]", "Assigned label": "criterion not met"}
{"Molecule": "COc1cc2ccn(C)c(=O)c2cc1O [IS002]", "Assigned label": "criterion not met"}
{"Molecule": "COc1cccc(COc2cc3c(=O)n(C)ccc3cc2OC)c1 [IS521]", "Assigned label": "criterion met"}
{"Molecule": "COc1cc(COc2cc3c(=O)n(C)ccc3cc2OC)cc(OC)c1 [IS523]", "Assigned label": "criterion met"}

[ask] Please indicate whether the reported EC50 of COc1ccc2c(=O)n(C)ccc2c1OCc1ccc(C)cc1 [IS529] is strictly below 0.5 µM.
[reply] criterion met

[ask] # repeat for COc1ccc2c(=O)n(C)ccc2c1OCCCc1ccccc1 [IS008]
[reply] criterion not met

[ask] Try this molecule too: COc1cc2ccn(C)c(=O)c2cc1OCCCI [IS101]
[reply] criterion not met

[ask] Try this molecule too: Cn1ccc2ccc(O)c(O)c2c1=O [IS037]
[reply] criterion not met

----------
biological target: MT2 receptor (Homo sapiens, UniProt P49286); test: cAMP assay, MT2; type: cell-based; set-up: expressed in transfected cells; host or cells: COS-7 (monkey kidney fibroblast); details: inhibition of forskolin-stimulated cAMP production; MT2-expressing cells
cAMP Assay MT2 % Inh by entry:
Number in %, nothing else.

{"Record smiles": "COc1cccc(COc2c(OC)ccc3c(=O)n(C)ccc23)c1", "Unit text": "%", "Experimental result": 51.4}

[ask] # query: cAMP Assay MT2 % Inh of entry `COc1cc(COc2c(OC)ccc3c(=O)n(C)ccc23)cc(OC)c1`
[reply] 49.4

[ask] Thanks! And `COc1cc(COc2cc3c(=O)n(C)ccc3cc2OC)cc(OC)c1` ?
[reply] 50.8
